In this section, each of the molecules is paired with its reported Potency.
# System: rat chronic carcinogenicity bioassay, TD50
# measurement.description: DSSTox (CPDBAS) Carcinogenic Potency Database Summary Rat Bioassay Results
# run.conditions: TD50_Rat_Note: TD50 is harmonic mean of more than one positive test; TargetSites_Rat_Female: esophagus; liver; nasal cavity; oral cavity; hits give low values

smiles.entry: CC(=O)CN(C)N=O
test.result: 0.0172 mg/kg/day

Enquiry: Quick one: Potency for O=NN1CCCN(N=O)CC1 ?
Return: 0.0615 mg/kg/day

----------
# Tested on: rat chronic carcinogenicity bioassay, TD50
# measurement.description: DSSTox (CPDBAS) Carcinogenic Potency Database Summary Rat Bioassay Results
# run.conditions: TD50_Rat_Note: positive test results only by intraperitoneal or intravenous injection; TD50 is harmonic mean of more than one positive; TargetSites_Rat_Female: hematopoietic system; mammary gland; nervous system; hits give low values
quantity: Potency

Enquiry: Requested field: Potency. Item: CNNCc1ccc(C(=O)NC(C)C)cc1
Return: 0.351 mg/kg/day
